Assay target: MERTK (UniProt Q12866)
Sequence (Q12866 whole entry, looked up): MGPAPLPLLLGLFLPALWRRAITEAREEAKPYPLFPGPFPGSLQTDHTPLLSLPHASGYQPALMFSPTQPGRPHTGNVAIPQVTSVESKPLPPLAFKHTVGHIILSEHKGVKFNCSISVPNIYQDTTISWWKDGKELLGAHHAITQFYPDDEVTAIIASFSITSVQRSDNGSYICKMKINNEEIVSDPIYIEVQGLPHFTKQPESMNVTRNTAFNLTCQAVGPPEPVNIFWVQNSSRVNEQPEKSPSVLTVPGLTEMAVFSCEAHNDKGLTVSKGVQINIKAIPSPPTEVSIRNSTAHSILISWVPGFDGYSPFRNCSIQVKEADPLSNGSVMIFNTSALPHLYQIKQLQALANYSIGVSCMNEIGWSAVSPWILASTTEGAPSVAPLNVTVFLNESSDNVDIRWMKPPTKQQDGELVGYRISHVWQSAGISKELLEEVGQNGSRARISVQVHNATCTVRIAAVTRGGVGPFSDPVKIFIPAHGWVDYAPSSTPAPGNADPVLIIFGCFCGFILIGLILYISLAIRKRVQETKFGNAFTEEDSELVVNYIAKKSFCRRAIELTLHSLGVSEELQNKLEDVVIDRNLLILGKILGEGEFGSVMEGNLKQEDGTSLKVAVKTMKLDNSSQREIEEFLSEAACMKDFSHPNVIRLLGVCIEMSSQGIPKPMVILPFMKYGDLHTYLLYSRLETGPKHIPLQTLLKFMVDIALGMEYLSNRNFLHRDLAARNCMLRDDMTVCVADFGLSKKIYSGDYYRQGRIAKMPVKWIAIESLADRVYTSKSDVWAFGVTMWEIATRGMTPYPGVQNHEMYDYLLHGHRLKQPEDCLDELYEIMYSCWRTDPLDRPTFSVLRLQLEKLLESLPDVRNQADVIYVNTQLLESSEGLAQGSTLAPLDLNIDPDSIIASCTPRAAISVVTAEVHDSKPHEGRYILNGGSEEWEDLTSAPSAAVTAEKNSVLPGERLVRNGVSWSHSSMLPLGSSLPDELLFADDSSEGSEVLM
Assay protocol: phosphorylation enrichment, bacterial display (enrichment ratio); higher = better substrate or ligand; peptides without Tyr show the background;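 note: 11-residue human phosphosite peptides and single-mutation variants displayed on the E. coli surface, counted by deep sequencing, each peptide's frequency after selection divided by its frequency in the unselected input library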;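 note: frequency after pTyr selection over input frequency; kinase dosed for 20-30% of maximal phosphorylation in three min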
The threshold is inclusive: phosphorylation enrichment of exactly 0.5 counts as fulfilled; values below receive not fulfilled.

Has MGGSLYFSYPD [HIKESHI_Y55_V54L] a recorded phosphorylation enrichment greater than or equal to 0.5? fulfilled

Same question, SLQFEYVHFGG [CDC14A_Y591_S589F_YF] this time not fulfilled

Next entry: ETLLYYGCRRS [POR_Y564] fulfilled

# repeat for ISTAGYSIPEL [EDAR_Y406] fulfilled

Also check YIPFRYPKEFQ [IDS_Y234_H229Y] fulfilled

Can you check ENAGYYFQVSA next? fulfilled

Same lookup for RLLREYQELMN [KRT75_Y434] , please. not fulfilled

Continue with MTKEQYIKMNR [ARFGEF2_Y797] not fulfilled

Now the sequence TGDFGYRAPGF [TNS2_Y668_YF] fulfilled
